# System: EKVX
# Protocol Summary: NCI tumour cell line growth inhibition, 48 h
Active and inactive are the calls of the source. Cut-off read from the data, not from the text of the source: active = GI50 up to about 1.1 µM and inactive = higher.
Labels: label 1 for active, label 0 for inactive

Smiles Code	Assigned Category
Cc1c2ccnc(C(=O)NCCN(C)C)c2cc2c3cc(O)ccc3n(C)c12	label 1
O[C@H]1[C@H](O)[C@@H](Cn2nnc(-c3ccccc3)c2-c2ccccc2)OCO[C@@H]1Cn1nnc(-c2ccccc2)c1-c1ccccc1	label 0
CN(C)c1ccc(-c2c(C#N)c(S)n(NS(=O)(=O)c3ccccc3)c(=O)c2C#N)cc1	label 0
N/N=C(/Cc1nc2ccc(C(=O)c3ccccc3)cc2nc1O)C(=O)Nc1ccc([N+](=O)[O-])cc1[N+](=O)[O-]	label 0

Source of measurements: ChEMBL document CHEMBL1201862
